Listed here: items and their measured IC50 at 72 h.
Experiment: In vitro Neutral Red cytotoxicity assay, MRC-5
Format: cell-based, human
Conditions: human, MRC-5 cells (non-cancer fibroblast cell line), value in parentheses
A number alone suffices; assume µM.

Please review the following examples before continuing.
# Compound, IC50 at 72 h, µM
measured = [
    ("CC(C)(C)c1ccc(O)c(C(C)(C)C)c1", 97.1),
    ("COc1cccc2c1C(=O)c1c(O)c3c(c(O)c1C2=O)C[C@@](O)(C(=O)CO)C[C@@H]3O[C@H]1C[C@H](N)[C@H](O)[C@H](C)O1 [Doxorubicin, reference compound]", 1.01),
    ("Cc1c(C)c2c(c(C)c1O)CC[C@@](C)(CCC[C@H](C)CCC[C@H](C)CCCC(C)C)O2", 70.9),
]

Input: Entry CC1(C)CCCC2(C)OC(=O)C=C12 (stereo not shown) [Dihydroactinidiolide (1), Dihydroactinidiolide] has what IC50 at 72 h?
Output: 507
